We begin with a simple list: items and their reported log10 of Relative cAMP EC50.
Target: hGLP-1R (Homo sapiens, UniProt P43220)
Sequence (P43220 24-463): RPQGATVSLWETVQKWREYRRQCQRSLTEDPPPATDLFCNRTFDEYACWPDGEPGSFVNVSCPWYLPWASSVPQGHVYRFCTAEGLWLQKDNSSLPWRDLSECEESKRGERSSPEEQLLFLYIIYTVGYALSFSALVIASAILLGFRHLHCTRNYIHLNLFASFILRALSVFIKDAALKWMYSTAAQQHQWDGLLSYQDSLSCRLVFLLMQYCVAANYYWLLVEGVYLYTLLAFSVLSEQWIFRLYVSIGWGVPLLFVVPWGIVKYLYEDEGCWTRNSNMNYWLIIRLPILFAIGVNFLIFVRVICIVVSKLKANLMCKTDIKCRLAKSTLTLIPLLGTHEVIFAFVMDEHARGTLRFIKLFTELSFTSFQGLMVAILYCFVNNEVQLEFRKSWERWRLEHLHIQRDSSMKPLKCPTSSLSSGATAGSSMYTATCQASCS
Experiment: cell-based or functional assay
Values reflect log10 of reported Relative cAMP EC50 (nM).

Look over these answered cases.
# binder, assay endpoint, recorded measurement
rows = [
    ("YXQGTFTSDFSXXLDKKAQXAFIEYLLEAGPSSGXPPPSGX (synthetic construct; SITE 2: note = 2-Aminoisobutyric Acid; SITE 12: note = L-ornithine; SITE 13: note = alpha-methyl-leucine; SITE 17: note = Lysine is chemically modified through conjugation of the epsilon-amino group of the Lysine side chain with (2-[2-(2-Amino-ethoxy)-ethoxy]-acetyl)2-(gamma-Glu)) [Example 258]", "log10 of Relative cAMP EC50", 0.43),
    ("YXQGTFTSDFSQXLDKKAQXAFIEYLIAGGPSSGAPPPSGS (synthetic construct; SITE 2: note = 2-Aminoisobutyric Acid; SITE 13: note = alpha-methyl-leucine; SITE 17: note = Lysine is chemically modified through conjugation of the epsilon-amino group of the Lysine side chain with (2-[2-(2-Amino-ethoxy)-ethoxy]-acetyl)-(gamma-Glu)-CO-(CH2) 16-CO2H; SITE 20: n) [Example 875]", "log10 of Relative cAMP EC50", -0.11),
    ("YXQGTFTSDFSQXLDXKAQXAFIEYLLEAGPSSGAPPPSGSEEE (synthetic construct; SITE 2: note = 2-Aminoisobutyric Acid; SITE 13: note = alpha-methyl-leucine; SITE 16: note = L-ornithine; SITE 17: note = Lysine is chemically modified through conjugation of the epsilon-amino group of the Lysine side chain with (2-[2-(2-Amino-ethoxy)-ethoxy]-acetyl)-(gamma-Glu)) [Example 1038]", "log10 of Relative cAMP EC50", 0.16),
]

Looking for the measured log10 of Relative cAMP EC50 of YXQGTFTSDFSRXLDKKAQXAFIEYLIEXGESSGAPPPSGS (C-terminal amide; lysine acylated with AEEA-γ-Glu-C18 diacid; synthetic construct; SITE 2: note = 2-Aminoisobutyric Acid; SITE 13: note = alpha-methyl-leucine; SITE 17: note = Lysine is chemically modified through conjugation of the epsilon-amino group of the Lysine side chain with (2-[2-(2-Amino-ethoxy)-ethoxy]-acetyl)-(gamma-Glu)-CO-(CH2) 16-CO2H; SITE 20: n) [Example 221] , can you help?
-0.20

And YXQGTXTSDYSIXLDKKAQXAFIEYLEEGGPSSGAPEPS (synthetic construct; SITE 2: note = 2-Aminoisobutyric Acid; SITE 6: note = alpha-methyl-2-fluoro-L-phenylalanine; SITE 13: note = alpha-methyl-leucine; SITE 17: note = Lysine is chemically modified through conjugation of the epsilon-amino group of the Lysine side chain with (2-[2-(2-Amino-ethoxy)-et)) [Example 423] ?
-0.71

And YXQGTFTSDFSXXLDKKAQXAFIEYLIEXGESSGAPPPSGE (non-natural residues, acylated Lys, C-terminal amide; synthetic construct; SITE 2: note = 2-Aminoisobutyric Acid; SITE 12: note = L-ornithine; SITE 13: note = alpha-methyl-leucine; SITE 17: note = Lysine is chemically modified through conjugation of the epsilon-amino group of the Lysine side chain with (2-[2-(2-Amino-ethoxy)-ethoxy]-acetyl)-(gamma-Glu)) [Example 228] ?
0.18
